Values were extracted from ChEMBL document CHEMBL4513216.

assay: Toxicity liver stage against HepG2, at 10uM; type: cell-based; set-up: test concentration 10 uM, cell line HepG2-A16-CD81EGFP; settings: human, HepG2-A16-CD81EGFP cells; read-out: INHIBITION
Readout Name: cytotoxicity at 10 µM (%)
Answers are plain numbers, in %.

// below: answered molecules
Molecule | Numeric Result
CC(=O)c1cn(CC(=O)N2CCC3(CC2)OCCO3)c2ccccc12 | 0.436
N#Cc1cccc(SCCS(N)(=O)=O)c1 | -2.53
CN(CCn1ccc2ccccc21)C(=O)Cc1n[nH]c(=O)[nH]1 | -16.4

Batch of 3 molecules: report cytotoxicity at 10 µM for each.
1. Cc1cc(CN2CCC(C3CCN(CC(C)C)CC3)C2)[nH]n1 (stereo not drawn)
2. Cc1cc(-c2nccs2)nc(C2CCN(Cc3cccs3)CC2)n1
3. CCOc1cccc(CNc2ccccc2OC)c1O

-- reply
[-8.71, 6.81, 0.142]
